- target desc: endogenous CD73 activity in Calu-6 cells (Homo sapiens, UniProt P21589)
- Construct: Calu6 (CD73 endogenous expressors; human pulmonary adenocarcinoma cell line); endogenous in cells
- Sequence (P21589 27-549): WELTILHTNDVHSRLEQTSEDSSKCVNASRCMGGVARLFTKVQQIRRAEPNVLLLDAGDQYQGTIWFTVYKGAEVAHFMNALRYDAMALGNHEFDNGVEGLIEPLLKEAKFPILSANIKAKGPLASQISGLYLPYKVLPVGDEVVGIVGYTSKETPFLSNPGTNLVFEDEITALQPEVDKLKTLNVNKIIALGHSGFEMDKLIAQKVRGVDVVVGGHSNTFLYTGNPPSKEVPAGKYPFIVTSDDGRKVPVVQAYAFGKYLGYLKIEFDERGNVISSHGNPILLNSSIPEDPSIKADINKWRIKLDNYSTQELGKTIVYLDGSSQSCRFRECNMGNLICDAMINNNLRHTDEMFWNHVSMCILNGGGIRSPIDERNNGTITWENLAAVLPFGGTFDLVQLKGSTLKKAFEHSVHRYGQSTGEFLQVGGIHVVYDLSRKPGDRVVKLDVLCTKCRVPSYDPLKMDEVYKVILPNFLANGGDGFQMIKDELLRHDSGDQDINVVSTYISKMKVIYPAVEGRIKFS
- protocol text: Dual cell line HTRF cAMP assay (Calu-6 and HEK293/A2AR cells)
- condition notes: cAMP assay
pIC50: −log10 of the molar value.

- compound: "Nc1ncnc2c1ncn2[C@@H]1O[C@H](COP(=O)(O)CP(=O)(O)O)[C@@H](O)[C@H]1O [APCP]"
  pIC50: 8.89
